Molecular target: Drosophila OR98a (Drosophila melanogaster)
Construct: expressed in transfected cells
Sequence (Q9VAZ3 whole entry): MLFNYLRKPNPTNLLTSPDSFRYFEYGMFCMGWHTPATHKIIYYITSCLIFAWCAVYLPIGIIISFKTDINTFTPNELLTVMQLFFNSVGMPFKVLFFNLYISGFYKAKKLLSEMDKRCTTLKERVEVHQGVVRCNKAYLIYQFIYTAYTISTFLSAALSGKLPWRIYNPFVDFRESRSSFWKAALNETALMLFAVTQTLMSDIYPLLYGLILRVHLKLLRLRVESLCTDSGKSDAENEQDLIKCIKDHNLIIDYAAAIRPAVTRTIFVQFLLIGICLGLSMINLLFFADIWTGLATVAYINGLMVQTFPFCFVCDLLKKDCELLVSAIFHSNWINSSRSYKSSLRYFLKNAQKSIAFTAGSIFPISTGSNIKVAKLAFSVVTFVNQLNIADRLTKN
Sequence (Q9VNB5 whole entry partner): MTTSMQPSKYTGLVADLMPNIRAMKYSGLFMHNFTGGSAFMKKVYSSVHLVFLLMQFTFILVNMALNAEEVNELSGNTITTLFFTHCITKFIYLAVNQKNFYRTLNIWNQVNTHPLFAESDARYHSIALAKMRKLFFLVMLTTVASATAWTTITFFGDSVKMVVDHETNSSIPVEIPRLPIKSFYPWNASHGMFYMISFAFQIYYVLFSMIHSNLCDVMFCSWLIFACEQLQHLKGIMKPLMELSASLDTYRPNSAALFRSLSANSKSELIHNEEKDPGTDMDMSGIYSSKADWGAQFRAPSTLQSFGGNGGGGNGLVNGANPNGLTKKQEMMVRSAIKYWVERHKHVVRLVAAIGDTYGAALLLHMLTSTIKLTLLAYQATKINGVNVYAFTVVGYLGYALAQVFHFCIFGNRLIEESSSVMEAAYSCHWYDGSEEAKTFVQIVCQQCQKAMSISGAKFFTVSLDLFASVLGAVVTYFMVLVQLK
Experiment: Calcium ion fluorescence (GCaMP6) assay, OR98a stable HEK293 cell line
Type: cell-based
Settings: ligand concentration 100 (unit not given); threshold 0.05, below shown as 0
Listed below: DF norm AVERAGE OR98a values for each entry.
Please respond with just the number, no unit label.

Consider the following illustrative entries.
What value of DF norm AVERAGE OR98a has been reported for the following compound? CC/C=C/CCO [e3-hexenol] 0

Also CCCCOC(C)=O [butyl acetate] ? 0

And then C=CCc1ccc(O)c(OC)c1 [eugenol] , what is it? 0

And what about the compound C=CC(C)(O)CCC=C(C)C (centres unmarked) [linalool] ? 0

Another: Cc1cccc(C)c1 [m-xylene] 0

***
Bench note: what DF norm AVERAGE OR98a did Cc1ccccc1C [o-xylene] show? 0

Next compound up: CCCCCOC(C)=O [pentyl acetate] 0.136

# iterate: C=C(C)[C@H]1CC=C(C)CC1 [limonene] 0

Same thing, different compound: CCCCCCCCC=O [nonanal] 0.05502

Then Cc1ccc(C)cc1 [p-xylene] ? 0

Also C=C1CCC2CC1C2(C)C (stereo not drawn) [beta-pinene] , if possible. 0

Let us now turn to CCCOC(C)=O [propyl acetate] 0.1069

Continue with CC1=CC[C@@H](C(C)(C)O)CC1 [alpha-terpineol] 0.06455

Same again, this time with CC(=O)OCCC(C)C [isopentyl acetate] 0.3069

Data provenance: paper PMC10709440
